Numbers sourced from patent US9611267B2.

Target Of Assay: FGFR1 (Homo sapiens (Human), UniProt P11362)
Sequence (P11362 22-822): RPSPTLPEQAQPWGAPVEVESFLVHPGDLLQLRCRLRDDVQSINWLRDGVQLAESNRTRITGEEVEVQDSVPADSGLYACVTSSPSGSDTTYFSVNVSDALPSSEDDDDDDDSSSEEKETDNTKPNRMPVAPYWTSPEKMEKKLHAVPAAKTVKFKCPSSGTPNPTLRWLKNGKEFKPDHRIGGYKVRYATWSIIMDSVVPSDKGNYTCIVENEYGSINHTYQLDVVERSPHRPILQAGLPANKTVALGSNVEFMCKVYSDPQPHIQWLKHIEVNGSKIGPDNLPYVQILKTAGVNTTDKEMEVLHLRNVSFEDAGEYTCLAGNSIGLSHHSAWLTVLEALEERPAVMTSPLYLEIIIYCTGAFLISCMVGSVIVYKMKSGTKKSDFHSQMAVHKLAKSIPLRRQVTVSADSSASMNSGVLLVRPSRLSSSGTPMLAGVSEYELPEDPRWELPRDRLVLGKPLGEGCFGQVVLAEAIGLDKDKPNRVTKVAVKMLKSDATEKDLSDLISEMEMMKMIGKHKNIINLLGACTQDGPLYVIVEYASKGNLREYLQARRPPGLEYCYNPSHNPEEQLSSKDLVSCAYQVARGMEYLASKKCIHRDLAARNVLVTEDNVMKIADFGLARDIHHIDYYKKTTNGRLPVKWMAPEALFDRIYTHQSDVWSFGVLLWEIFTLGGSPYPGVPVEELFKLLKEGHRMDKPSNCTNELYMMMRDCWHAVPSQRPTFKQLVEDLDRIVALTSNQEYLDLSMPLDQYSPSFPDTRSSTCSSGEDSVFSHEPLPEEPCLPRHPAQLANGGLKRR
Assay Name: FGFR enzymatic assay (FRET peptide phosphorylation), FGFR1
Format: biochemical
Condition Parameters: FGFR1 enzyme 0.02 nM, ATP 210 μM
pIC50: −log10 of the molar value.
Listed next: entries and their corresponding pIC50.
Reported Metric: pIC50

>>> print(df.to_string())
                                     smiles  reported_value
0  COc1cc(OC)c(F)c(N2Cc3cnc4[nH]ccc4c3N(c3ccccc3)C2=O)c1F          > 7.00
1  CCN1CCN(CCc2cc3c4c(cnc3[nH]2)CN(c2c(F)c(OC)cc(OC)c2F)C(=O)C4(C)C)CC1          > 7.00
2  COc1cc(OC)c(F)c(N2Cc3cnc4[nH]ncc4c3N(Cc3ccon3)C2=O)c1F          > 7.00
3  COc1cc(OC)c(F)c(N2Cc3cnc4[nH]c(CN5CCOCC5)cc4c3N(c3cccc(F)c3)C2=O)c1F          > 7.00
